Origin of measurements: patent US10800757B2

TARGET SYSTEM: TRPC6 (Homo sapiens (Human))
ASSAY: High throughput screening assay: fluorescent calcium (Fluo4/AM) assay of TRPC6 channel activation by GSK1702934A in HEK293/TREx cells
RUN CONDITIONS: HEK293/TREx cells stably transfected with TRPC6; agonist GSK1702934A; 7 concentrations 20 μM to 0.027 μM, triplicate
The following compounds are listed with their measured IC50 values.
Give the value, in units of nM, as a plain number.

COc1cc(C(=O)N2CCN(c3cnc(N)cc3OC)CC23CC3)ncc1Oc1ccccc1 ... 27
COc1cc(C(=O)N2CCC(c3ccc(N)nn3)CC2)ncc1OCC(C)C ... 97
COc1cc(C(=O)N2CCC(c3ccc(N)nn3)CC2)ncc1Oc1ccc(C(F)(F)F)cc1 ... 82

// switching to the query compound
Recorded result, COc1cc(C(=O)N2CCC(c3cnc(N)cc3OC)CC2)ncc1OC[C@H]1C[C@H](C(F)(F)F)C1 , IC50: 635

###

TARGET SYSTEM: TRPC6 (Homo sapiens (Human))
ASSAY: High throughput screening assay: fluorescent calcium (Fluo4/AM) assay of TRPC6 channel activation by GSK1702934A in HEK293/TREx cells
RUN CONDITIONS: HEK293/TREx cells stably transfected with TRPC6; agonist GSK1702934A; 7 concentrations 20 μM to 0.027 μM, triplicate
READOUT TYPE: pIC50
Keep it numeric: pIC50 is minus log10 of the concentration in mol/L.

COc1cc(C(=O)N2CCN(c3ccc(N)nc3)CC2)ncc1Oc1ccccc1 ... 7.57

// pIC50 value for COc1cc(C(=O)N2C3CCC2CN(c2cnc(N)cc2OC)C3)ncc1Oc1ccccc1 : 6.54

Record COc1cc(C(=O)N2CCC(c3ccc(N)nn3)CC2)ncc1Oc1ccc(F)cc1 , field pIC50: 7.54

For this compound ( COc1cc(C(=O)N2CCC(c3nnc(N)cc3C)CC2)ncc1Oc1ccc(F)cc1 ), measured pIC50 is 6.96

Entry COc1cc(C(=O)N2CCC(c3cnc(N)cc3OC)CC2)ncc1OCCC1CC1 , pIC50 reported as 6.60

###

Examples of compounds with documented IC50 follow.
TARGET SYSTEM: TRPC6 (Homo sapiens (Human), UniProt Q9Y210)
Sequence (Q9Y210 whole entry, species assumed): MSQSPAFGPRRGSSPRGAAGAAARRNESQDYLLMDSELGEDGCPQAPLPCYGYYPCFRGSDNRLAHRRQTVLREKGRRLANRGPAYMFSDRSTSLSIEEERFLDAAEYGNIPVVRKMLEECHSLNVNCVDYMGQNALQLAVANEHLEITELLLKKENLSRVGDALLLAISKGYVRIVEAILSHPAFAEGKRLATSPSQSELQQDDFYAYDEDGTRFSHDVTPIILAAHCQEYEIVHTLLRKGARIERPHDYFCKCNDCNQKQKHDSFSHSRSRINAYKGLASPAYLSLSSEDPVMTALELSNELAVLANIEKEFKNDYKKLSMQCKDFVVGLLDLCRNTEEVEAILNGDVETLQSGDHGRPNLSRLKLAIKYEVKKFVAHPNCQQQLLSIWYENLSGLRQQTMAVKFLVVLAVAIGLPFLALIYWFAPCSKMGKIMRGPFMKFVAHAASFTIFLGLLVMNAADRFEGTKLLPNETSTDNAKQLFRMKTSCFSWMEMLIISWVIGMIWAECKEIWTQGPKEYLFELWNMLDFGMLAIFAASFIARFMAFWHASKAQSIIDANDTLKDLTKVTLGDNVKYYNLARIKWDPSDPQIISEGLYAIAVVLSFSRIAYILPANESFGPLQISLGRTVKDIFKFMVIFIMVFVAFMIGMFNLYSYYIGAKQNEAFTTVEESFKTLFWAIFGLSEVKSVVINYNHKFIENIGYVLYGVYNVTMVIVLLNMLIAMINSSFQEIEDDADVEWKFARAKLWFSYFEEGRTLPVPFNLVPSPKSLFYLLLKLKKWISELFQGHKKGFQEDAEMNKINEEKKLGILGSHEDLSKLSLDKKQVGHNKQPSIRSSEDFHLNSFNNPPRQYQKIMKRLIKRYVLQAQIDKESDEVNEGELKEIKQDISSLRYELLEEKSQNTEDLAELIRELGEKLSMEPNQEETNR
ASSAY: High throughput screening assay: fluorescent calcium (Fluo4/AM) assay of TRPC6 channel activation by GSK1702934A in HEK293/TREx cells
RUN CONDITIONS: HEK293/TREx cells stably transfected with TRPC6; agonist GSK1702934A; 7 concentrations 20 μM to 0.027 μM, triplicate
Expressed in nM, but write only the number.

COc1cc(C(=O)N2CCC(c3cnc(N)cc3OC)CC2)ncc1OCc1ccc(F)cc1 ... 130
CCCOc1cc(N)ncc1C1CCN(C(=O)c2cc(OC)c(Oc3ccccc3)cn2)CC1 ... 350
CCCOc1cnc(C(=O)N2CCC(c3cnc(N)cc3OC)CC2)cc1OC ... 160
COc1cc(C(=O)N2CCN(c3ccc(N)nc3)C[C@@H]2CO)ncc1Oc1ccccc1 ... 71
CCOc1cc(N)nnc1C1CCN(C(=O)c2cc(OC)c(Oc3ccccc3)cn2)CC1 ... 320

// IC50 value for COc1cc(C(=O)N2CCC(c3cnc(N)cc3OC)CC2)ncc1O[C@@H](C)C1CC1 : 640

Input COc1cc(C(=O)N2CCC(c3ccc(N)nn3)CC2)ncc1OC1CCCCC1 . Output IC50: 550

In plain terms, COc1cc(C(=O)N2CCC(c3cnc(N)cc3OC)CC2)ncc1OC1CCCCC1 has a documented IC50 of 110
